For each of the compounds below, state its Ki.
Molecular target: UniProtKB Q99500
Experiment: Receptor binding assay, [33P]sphingosine 1-phosphate competition, S1P3 membranes, WGA SPA beads
Settings: 384 well-plate; read-out: S1P3 binding Ki (M) (384 well-plate)
Structures can show the parent of a compound that is named as a salt.
Report only the number, with the unit M understood.

-- ask Annotate the compound Cc1ccccc1-c1ccc(-c2nc(-c3ccc(CN(C)CC(=O)O)cc3)no2)cc1C [Example 130, hydrochloride salt] with its measured Ki.
-- reply 5.38e-06

-- ask Kindly indicate its recorded Ki. Item: COCc1cc(-c2nc(-c3ccc(CN(C)CC(=O)O)cc3Cl)no2)ccc1-c1ccccc1C [Example 144]
-- reply 3.55e-07

-- ask Find the measured Ki of COCc1cc(-c2nc(-c3cccc(CN(C)CC(=O)O)c3)no2)ccc1-c1ccc(F)cc1C [Example 36, hydrochloride salt] and report it.
-- reply 2.71e-07

-- ask Give reported Ki value for COCc1cc(-c2nc(-c3ccc(CN(C)CC(=O)O)c(F)c3)no2)ccc1-c1ccccc1Cl [Example 119, hydrochloride salt]
-- reply 3.83e-07

-- ask Complete the entry with Ki for Cc1ccccc1-c1ccc(-c2nc(-c3cccc(CN(C)CC(=O)O)c3)no2)cc1C [Example 132, hydrochloride salt]
-- reply 1.64e-06

-- ask Answer with the recorded Ki of Cc1cc(CNCC(=O)O)ccc1-c1noc(-c2ccc(-c3ccccc3C)c(C(F)(F)F)c2)n1 [Example 107] only.
-- reply 2.12e-07

-- ask Dear colleague, please send me the reported Ki for COCc1cc(-c2nc(-c3ccc(CCN(C)CC(=O)O)cc3)no2)ccc1-c1ccccc1C [Example 87] when you can.
-- reply 3.85e-07

-- ask # return recorded Ki for entry CC1CCCCN1c1ccc(-c2nc(-c3cccc(CN(C)CC(=O)O)c3)no2)cc1C(F)(F)F (stereo not drawn) [Example 13]
-- reply 2.75e-07

-- ask Give recorded Ki. COCc1cc(-c2nc(-c3cccc(CN(CCC(=O)O)C(C)C)c3)no2)ccc1-c1ccccc1C [Example 108, hydrochloride salt]
-- reply 1.1e-06

-- ask Report measured Ki; entry is COCc1cc(-c2nc(-c3ccc(CN(C)CC(=O)O)cc3C)no2)ccc1-c1ccccc1C [Example 102]
-- reply 6.99e-07

-- ask Look up Ki of COCc1cc(-c2nc(-c3ccc(CN(C)CC(=O)O)cc3F)no2)ccc1-c1ccccc1C [Example 146, hydrochloride salt] and report it.
-- reply 3.68e-07

-- ask Give the reported value of Ki for this record: Cc1ccccc1-c1ccc(-c2nc(-c3ccc(CNCCCC(=O)O)cc3)no2)cc1C(F)(F)F [Example 142]
-- reply 3.73e-07

---

Biological target: S1P3 (Homo sapiens)
Experiment: Receptor binding assay, [33P]sphingosine 1-phosphate competition, S1P3 membranes, WGA SPA beads
Conditions: 96 well-plate; read-out: S1P3 binding Ki (M) (96 well-plate)
Counter-ions that a name gives are not always drawn.
Experimental endpoint: Ki (M)
# number only, unit M dropped from output

-- ask Identify measured Ki obtained with S1P3 (Homo sapiens) for CC1CCCCN1c1ccc(-c2nc(-c3cc(F)cc(CN(C)CC(=O)O)c3)no2)cc1C(F)(F)F (stereo not drawn) [Example 56, hydrochloride salt] .
-- reply 3.79e-08

-- ask For S1P3 (Homo sapiens), give the measured Ki of the entry CCOc1cc(-c2nc(-c3ccc(CN(C)CC(=O)O)c(F)c3)no2)ccc1-c1ccccc1C [Example 92, hydrochloride salt]
-- reply 9.91e-08

-- ask Check S1P3 (Homo sapiens) data and give Ki for CC1CCCCN1c1ccc(-c2nc(-c3cccc(COCC(=O)O)c3)no2)cc1C(F)(F)F (stereo not drawn) [Example 38, hydrochloride salt] .
-- reply 6.74e-07

-- ask Given COCc1cc(-c2nc(-c3cc(F)cc(CN(C)CCC(=O)O)c3)no2)ccc1-c1ccccc1C [Example 21, hydrochloride salt] , report its Ki on S1P3 (Homo sapiens).
-- reply 1.13e-08

-- ask Provide the reported Ki (system: S1P3 (Homo sapiens)) for COCc1cc(-c2nc(-c3ccc(CN(C)CC(=O)O)cc3)no2)ccc1-c1cccc(F)c1C [Example 90, hydrochloride salt]
-- reply 5.45e-07

-- ask Write down the reported Ki (system: S1P3 (Homo sapiens)) of COCc1cc(-c2nc(-c3ccc(CNCC(=O)O)c(F)c3)no2)ccc1-c1ccccc1F [Example 82, hydrochloride salt]
-- reply 4.66e-08

---

Target: S1P3 (Homo sapiens)
Experiment: Receptor binding assay, [33P]sphingosine 1-phosphate competition, S1P3 membranes, WGA SPA beads
Settings: 96 well-plate; read-out: S1P3 binding Ki (M) (96 well-plate)
Counter-ions that a name gives are not always drawn.
I'd appreciate it if you could supply Ki values for the items below.
Respond numerically; units are M and should not be typed.

-- ask Provide only the value of recorded Ki for COCc1cc(-c2nc(-c3ccc(OCCO)c(F)c3)no2)ccc1-c1ccccc1C [Example 28]
-- reply 2.14e-07

-- ask Answer with the recorded Ki for the compound listed here: COCc1cc(-c2nc(-c3ccc(CNCC(=O)O)c(F)c3)no2)ccc1-c1ccccc1C [Example 83, hydrochloride salt]
-- reply 1.01e-07

-- ask Given the compound COCc1cc(-c2nc(-c3ccc(CN(C)CC(=O)O)cc3)no2)ccc1-c1ccccc1F [Example 54, hydrochloride salt] , write its reported Ki.
-- reply 3.21e-07

-- ask Supply reported Ki belonging to this compound: COCc1cc(-c2nc(-c3cccc(CN(C)CC(=O)O)c3)no2)ccc1-c1cccc(F)c1C [Example 35, hydrochloride salt]
-- reply 9.4e-08

-- ask Fill in Ki for record COCc1cc(-c2nc(-c3cccc(CN(C)CC(=O)O)c3)no2)ccc1-c1ccccc1F [Example 10, hydrochloride salt]
-- reply 2.33e-08

-- ask Supply reported Ki belonging to this compound: COCc1cc(-c2nc(-c3cccc(CN(CCO)CCO)c3)no2)ccc1-c1ccccc1C [Example 40]
-- reply 5.35e-07

-- ask Return the recorded Ki value; entry: CCOc1cc(-c2nc(-c3cccc(CN(C)CC(=O)O)c3)no2)ccc1-c1ccccc1C [Example 30, hydrochloride salt]
-- reply 3e-08

---

Structures can show the parent of a compound that is named as a salt.
Please go through the items and note down their melting point.

-- ask Complete the entry with melting point for COCc1cc(-c2nc(-c3cccc(CN(C)CC(=O)O)c3)no2)ccc1-c1ccc(F)cc1C (as salt: hydrochloride)
-- reply 214 to 216 °C

-- ask Fill in melting point for record COCc1cc(-c2nc(-c3ccc(CN(C)CC(=O)O)cc3)no2)ccc1-c1ccccc1Cl (as salt: hydrochloride)
-- reply 194 to 200 °C

-- ask Give the value of melting point reported for the following: COCc1cc(-c2nc(-c3cccc(CN(C)CC(=O)O)c3)no2)ccc1-c1cc(F)ccc1C (as salt: hydrochloride)
-- reply 177 to 183 °C

-- ask Query melting point for COC(C)c1cc(-c2nc(-c3ccc(CN(C)CC(=O)O)cc3)no2)ccc1-c1ccccc1C (stereo not shown) (as salt: hydrochloride) (hydrate or solvate)
-- reply 179 to 181 °C

-- ask Return melting point for the following compound: Cc1cc(-c2nc(-c3ccc(CN(C)CC(=O)O)cc3)no2)ccc1-c1ccccc1C(F)F (as salt: hydrochloride)
-- reply 229 to 234 °C

-- ask Provide one value: measured melting point of COCc1cc(-c2nc(-c3ccc(CN(C)CC(=O)O)c(F)c3)no2)ccc1-c1ccccc1Cl (as salt: hydrochloride)
-- reply 181 to 188 °C

-- ask Kindly indicate its recorded melting point. Item: COCc1cc(-c2nc(-c3cccc(CN(C)CC(=O)O)c3)no2)ccc1-c1cccc(F)c1C (as salt: hydrochloride)
-- reply 216 to 218 °C

---

Biological target: S1P3 (Homo sapiens, UniProt Q99500)
Sequence (Q99500 whole entry, species assumed): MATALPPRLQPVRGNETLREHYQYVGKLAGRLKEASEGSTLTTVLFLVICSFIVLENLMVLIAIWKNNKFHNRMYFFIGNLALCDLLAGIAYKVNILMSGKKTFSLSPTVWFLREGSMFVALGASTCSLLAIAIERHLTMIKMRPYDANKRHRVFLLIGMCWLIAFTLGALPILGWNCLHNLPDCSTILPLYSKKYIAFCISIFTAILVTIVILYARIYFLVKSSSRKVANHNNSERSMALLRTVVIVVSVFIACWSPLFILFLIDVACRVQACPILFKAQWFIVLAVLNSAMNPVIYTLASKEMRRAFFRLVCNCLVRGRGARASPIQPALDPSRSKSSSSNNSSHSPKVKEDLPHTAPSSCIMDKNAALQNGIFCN
Experiment: Receptor binding assay, [33P]sphingosine 1-phosphate competition, S1P3 membranes, WGA SPA beads
Settings: 96 well-plate; read-out: S1P3 binding Ki (M) (96 well-plate)
Counter-ions that a name gives are not always drawn.
Please go through the items and note down their log10(Ki).
On a log10 scale: recorded Ki, unit M.

-- ask Tell me log10(Ki) of C[C@@H]1CCCCN1c1ccc(-c2nc(-c3cccc(CN(C)CC(=O)O)c3)no2)cc1C(F)(F)F [Example 45, hydrochloride salt] when tested on S1P3 (Homo sapiens, UniProt Q99500).
-- reply -6.74

-- ask Tell me its log10(Ki) on S1P3 (Homo sapiens, UniProt Q99500): COCc1cc(-c2nc(-c3cc(F)cc(CN(C)CC(=O)O)c3)no2)ccc1-c1ccccc1F [Example 57, hydrochloride salt]
-- reply -8.14

-- ask Tell me its log10(Ki) on S1P3 (Homo sapiens, UniProt Q99500): "COCc1cc(-c2nc(-c3ccc(CCN(C)CC(=O)O)cc3)no2)ccc1-c1ccccc1C"
-- reply -6.38

-- ask Report the value of log10(Ki) obtained on S1P3 (Homo sapiens, UniProt Q99500) for COCc1cc(-c2nc(-c3ccc(CN(C)CC(=O)O)c(F)c3)no2)ccc1-c1cccc(F)c1C [Example 91, hydrochloride salt] .
-- reply -6.70

-- ask Param request: log10(Ki) | system S1P3 (Homo sapiens, UniProt Q99500) | item "COCc1cc(-c2nc(-c3cc(F)cc(CN(C)CC(=O)O)c3)no2)ccc1-c1ccccc1"
-- reply -7.96

-- ask Give the observed log10(Ki) of COCc1cc(-c2nc(-c3cccc(CN(C)CC(=O)O)c3)no2)ccc1N1CCCC1C (centres unmarked) for S1P3 (Homo sapiens, UniProt Q99500).
-- reply -6.52

-- ask Give S1P3 (Homo sapiens, UniProt Q99500) log10(Ki) for the following compound: "COCc1cc(-c2nc(-c3cc(F)c(C(=O)NCCC(=O)O)cc3F)no2)ccc1-c1ccccc1C"
-- reply -6.39

-- ask Return reported log10(Ki) for target or system S1P3 (Homo sapiens, UniProt Q99500), item "COCc1cc(-c2nc(-c3ccc(CNCC(=O)O)cc3C)no2)ccc1-c1ccccc1C" .
-- reply -6.80

-- ask Report value only: log10(Ki), S1P3 (Homo sapiens, UniProt Q99500), "COCc1cc(-c2nc(-c3cccc(CCN(C)CC(=O)O)c3)no2)ccc1-c1ccccc1C"
-- reply -7.50

-- ask Jot down log10(Ki) (S1P3 (Homo sapiens, UniProt Q99500)) of COCc1cc(-c2nc(-c3ccc(CN(C)CC(=O)O)c(F)c3)no2)ccc1-c1ccccc1C [Example 52, hydrochloride salt] .
-- reply -6.90

-- ask Quote S1P3 (Homo sapiens, UniProt Q99500) log10(Ki) for entry CCN(CCC(=O)O)Cc1cccc(-c2noc(-c3ccc(-c4ccccc4F)c(COC)c3)n2)c1 [Example 62, hydrochloride salt] .
-- reply -7.76

-- ask Answer with log10(Ki) of COCc1cc(-c2nc(-c3ccc(CN(C)CC(=O)O)cc3)no2)ccc1-c1ccccc1C [Example 51, hydrochloride salt] measured for S1P3 (Homo sapiens, UniProt Q99500).
-- reply -6.14

-- ask GET log10(Ki) | system: S1P3 (Homo sapiens, UniProt Q99500) | item: "Cc1ccccc1-c1ccc(-c2nc(-c3ccc(CNCCC(=O)O)cc3)no2)cc1C(F)(F)F"
-- reply -6.81

-- ask // fetch log10(Ki); item: CC1CCCCN1c1ccc(-c2nc(-c3ccc(CN(C)CC(=O)O)c(F)c3)no2)cc1C(F)(F)F (centres unmarked) [Example 85, dihydrochloride salt] ; system: S1P3 (Homo sapiens, UniProt Q99500)
-- reply -6.75

src = patent US8815919B2
